# Tested on: Human ovarian cancer cell line SKOV-3
# run.description: In vitro cytotoxicity, SKOV-3 cell viability (PrestoBlue)
# condition.label: SKOV-3, applied to the cell culture medium
measure: cytotoxicity compared with 1 (MMAF)

CCC(C)C(C(CC(=O)N1CCCC1C(OC)C(C)C(=O)NC(Cc1ccccc1)C(=O)O)OC)N(C)C(=O)C(NC(=O)C(C(C)C)N(C)CC(O)C(O)C(O)C(O)COC1OC(CO)C(O)C(O)C1O)C(C)C (stereo not shown): less cytotoxic
CCC(C)C(C(CC(=O)N1CCCC1C(OC)C(C)C(=O)NC(Cc1ccccc1)C(=O)O)OC)N(C)C(=O)C(NC(=O)C(C(C)C)N(C)CC(O)C(O)C(OC1OC(CO)C(O)C(OC2(C(=O)O)CC(O)C(NC(C)=O)C(C(O)C(O)CO)O2)C1O)C(O)CO)C(C)C (stereo not shown): less cytotoxic
